TESTED_SYSTEM: BRD3 (Homo sapiens, UniProt Q15059)
Construct: HiBiT, is appended to the N-terminus of endogenous BRD2, BRD3, and BRD4; endogenous in cells
Sequence (Q15059 whole entry): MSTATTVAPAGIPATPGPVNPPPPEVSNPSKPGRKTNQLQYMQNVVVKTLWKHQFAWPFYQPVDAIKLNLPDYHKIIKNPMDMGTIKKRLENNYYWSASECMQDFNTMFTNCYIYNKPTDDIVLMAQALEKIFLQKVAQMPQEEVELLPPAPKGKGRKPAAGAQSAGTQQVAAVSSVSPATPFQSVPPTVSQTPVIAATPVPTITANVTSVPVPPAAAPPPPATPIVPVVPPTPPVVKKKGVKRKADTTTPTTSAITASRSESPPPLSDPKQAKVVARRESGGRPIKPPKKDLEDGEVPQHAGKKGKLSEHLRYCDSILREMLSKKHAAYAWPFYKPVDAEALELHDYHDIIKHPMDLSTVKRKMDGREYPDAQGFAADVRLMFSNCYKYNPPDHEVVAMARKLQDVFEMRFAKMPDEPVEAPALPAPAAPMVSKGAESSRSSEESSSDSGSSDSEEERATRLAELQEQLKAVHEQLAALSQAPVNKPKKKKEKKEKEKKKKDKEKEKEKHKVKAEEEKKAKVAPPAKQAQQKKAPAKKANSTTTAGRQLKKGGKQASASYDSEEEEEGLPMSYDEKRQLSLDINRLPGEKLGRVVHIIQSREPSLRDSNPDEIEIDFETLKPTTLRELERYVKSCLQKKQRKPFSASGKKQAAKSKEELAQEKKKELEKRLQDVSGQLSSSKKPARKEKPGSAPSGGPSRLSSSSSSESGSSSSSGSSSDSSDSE
METHOD_SUMMARY: Live cell kinetic HiBiT degradation assay, HiBiT-BRD3 HEK293 cells
Assay type: cell-based
MEASUREMENT_PARAMETERS: HiBiT-BRD3 CRISPR knock-in HEK293 cells, live cell kinetic degradation, 24 h; read-out: Dmax 50 BRD3
Entries annotated with measured DC50

Some entries whose results are on file:
COMPOUND: Cc1ncsc1-c1ccc(CNC(=O)[C@@H]2C[C@@H](O)CN2C(=O)[C@@H](NC(=O)COCC(C)(COCCOCCOCCOC(=O)C[C@@H]2N=C(c3ccc(Cl)cc3)c3c(sc(C)c3C)-n3c(C)nnc32)COCCOCCOCCN2CCN(c3cccc4c3C(=O)N(C3CCC(=O)NC3=O)C4=O)CC2)C(C)(C)C)cc1 (mixture of isomers)
DC50: 6.2 nM

COMPOUND: Cc1ncsc1-c1ccc(CNC(=O)[C@@H]2C[C@@H](O)CN2C(=O)[C@@H](NC(=O)COCC(C)(COCCOCCOCCNc2cccc3c2C(=O)N(C2CCC(=O)NC2=O)C3=O)COCCOCCOC(=O)C[C@@H]2N=C(c3ccc(Cl)cc3)c3c(sc(C)c3C)-n3c(C)nnc32)C(C)(C)C)cc1 (mixture of isomers)
DC50: 8.1 nM

COMPOUND: Cc1ncsc1-c1ccc([C@H](C)NC(=O)[C@@H]2C[C@@H](O)CN2C(=O)[C@@H](NC(=O)COCC(C)(COCCOCCOCCNc2cc3c(cc2F)C(=O)N(C2CCC(=O)NC2=O)C3=O)COCCOCCOCCOC(=O)C[C@@H]2N=C(c3ccc(Cl)cc3)c3c(sc(C)c3C)-n3c(C)nnc32)C(C)(C)C)cc1 (mixture of isomers)
DC50: < 0.43 nM

Field: next compound
Task: DC50 for Cc1ncsc1-c1ccc(CNC(=O)[C@@H]2C[C@@H](O)CN2C(=O)[C@@H](NC(=O)COCC(C)(COCCOCCOCCNc2cccc3c2C(=O)N(C2CCC(=O)NC2=O)C3=O)COCCOCCOCCOC(=O)C[C@@H]2N=C(c3ccc(Cl)cc3)c3c(sc(C)c3C)-n3c(C)nnc32)C(C)(C)C)cc1 (mixture of isomers) ?
Output: 5.7 nM

----------
Entries annotated with measured DC50
TESTED_SYSTEM: BRD4^Long (Homo sapiens)
Construct: Western blot data for BET, CRBN and VHL protein levels; endogenous in cells; host or cells: HEK293 (ATCC)
METHOD_SUMMARY: Western blot dose-response degradation in HEK293 cells
Assay type: cell-based
MEASUREMENT_PARAMETERS: HEK293 cells, 6 h, Western blot; mean ± S.E.M. of three experiments, values marked b mean ± S.D. of two
Value expressed in nM; do not type the unit.

COMPOUND: Cc1ncsc1-c1ccc(CNC(=O)[C@@H]2C[C@@H](O)CN2C(=O)[C@@H](NC(=O)COCC(C)(COCCOCCOCCNc2cccc3c2C(=O)N(C2CCC(=O)NC2=O)C3=O)COCCOCCOCCOC(=O)C[C@@H]2N=C(c3ccc(Cl)cc3)c3c(sc(C)c3C)-n3c(C)nnc32)C(C)(C)C)cc1 (mixture of isomers) [AB3062 (23)]
DC50 [nM]: 2.5

Task: DC50 for Cc1ncsc1-c1ccc(CNC(=O)[C@@H]2C[C@@H](O)CN2C(=O)[C@@H](NC(=O)COCC(C)(COCCOCCOCCOC(=O)C[C@@H]2N=C(c3ccc(Cl)cc3)c3c(sc(C)c3C)-n3c(C)nnc32)COCCOCCOCCN2CCN(c3cc4c(cc3F)C(=O)N(C3CCC(=O)NC3=O)C4=O)CC2)C(C)(C)C)cc1 (mixture of isomers) [AB3030 (32)] ?
Output: 7.3

----------
TESTED_SYSTEM: BRD4^Short (Homo sapiens)
Construct: Western blot data for BET, CRBN and VHL protein levels; endogenous in cells; host or cells: HEK293 (ATCC)
METHOD_SUMMARY: Western blot dose-response degradation in HEK293 cells
Format: cell-based
MEASUREMENT_PARAMETERS: 6 h, mean ± S.E.M. of three experiments, values marked b mean ± S.D. of two
MEASURED_PARAMETER: DC50 (nM)
Value expressed in nM; do not type the unit.

MOLECULE: Cc1ncsc1-c1ccc(CNC(=O)[C@@H]2C[C@@H](O)CN2C(=O)[C@@H](NC(=O)COCC(C)(COCCOCCOCCNc2cc3c(cc2F)C(=O)N(C2CCC(=O)NC2=O)C3=O)COCCOCCOC(=O)C[C@@H]2N=C(c3ccc(Cl)cc3)c3c(sc(C)c3C)-n3c(C)nnc32)C(C)(C)C)cc1 (mixture of isomers) [AB3065 (28)]
DC50 (nM): 12

Task: DC50 for Cc1ncsc1-c1ccc(CNC(=O)[C@@H]2C[C@@H](O)CN2C(=O)[C@@H](NC(=O)COCC(C)(COCCOCCOCCNc2cc3c(cc2F)C(=O)N(C2CCC(=O)NC2=O)C3=O)COCCOCCOCCOC(=O)C[C@@H]2N=C(c3ccc(Cl)cc3)c3c(sc(C)c3C)-n3c(C)nnc32)C(C)(C)C)cc1 (mixture of isomers) [AB3063 (26)] ?
Output: 3.2

Task: DC50 for Cc1ncsc1-c1ccc(CNC(=O)[C@@H]2C[C@@H](O)CN2C(=O)[C@@H](NC(=O)COCC(C)(COCCOCCNc2cc3c(cc2F)C(=O)N(C2CCC(=O)NC2=O)C3=O)COCCOCCOCCOC(=O)C[C@@H]2N=C(c3ccc(Cl)cc3)c3c(sc(C)c3C)-n3c(C)nnc32)C(C)(C)C)cc1 (mixture of isomers) [AB3126 (29)] ?
Output: 5.3

----------
TESTED_SYSTEM: CRBN (Homo sapiens)
Sequence (Q96SW2 whole entry): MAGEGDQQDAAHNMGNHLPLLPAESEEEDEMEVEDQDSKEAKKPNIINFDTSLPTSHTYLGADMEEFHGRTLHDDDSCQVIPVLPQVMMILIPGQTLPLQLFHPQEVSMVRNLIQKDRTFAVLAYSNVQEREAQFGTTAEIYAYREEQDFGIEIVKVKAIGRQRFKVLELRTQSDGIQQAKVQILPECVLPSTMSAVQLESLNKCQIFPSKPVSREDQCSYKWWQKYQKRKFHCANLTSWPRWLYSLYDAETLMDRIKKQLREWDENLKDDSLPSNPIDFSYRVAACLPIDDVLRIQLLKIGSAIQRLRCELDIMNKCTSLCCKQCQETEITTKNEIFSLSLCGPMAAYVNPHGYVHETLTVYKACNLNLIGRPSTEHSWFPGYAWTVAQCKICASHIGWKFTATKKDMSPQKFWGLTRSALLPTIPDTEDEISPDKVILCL
METHOD_SUMMARY: Western blot dose-response degradation in HEK293 cells
Type: cell-based
Set-up: Western blot data for BET, CRBN and VHL protein levels; endogenous in cells; host or cells: HEK293 (ATCC)
MEASUREMENT_PARAMETERS: HEK293 cells, 6 h, Western blot; mean ± S.E.M. of three experiments, values marked b mean ± S.D. of two
We label by threshold. Values of DC50 strictly beneath 200 nM are label 1. Values of 200 nM and up are label 0.

COMPOUND: Cc1ncsc1-c1ccc(CNC(=O)[C@@H]2C[C@@H](O)CN2C(=O)[C@@H](NC(=O)COCC(C)(COCCOCCOCCNc2cc3c(cc2F)C(=O)N(C2CCC(=O)NC2=O)C3=O)COCCOCCOC(=O)C[C@@H]2N=C(c3ccc(Cl)cc3)c3c(sc(C)c3C)-n3c(C)nnc32)C(C)(C)C)cc1 (mixture of isomers) [AB3065 (28)]
CLASSIFICATION: label 0

COMPOUND: Cc1ncsc1-c1ccc([C@H](C)NC(=O)[C@@H]2C[C@@H](O)CN2C(=O)[C@@H](NC(=O)COCC(C)(COCCOCCOCCNc2cc3c(cc2F)C(=O)N(C2CCC(=O)NC2=O)C3=O)COCCOCCOCCOC(=O)C[C@@H]2N=C(c3ccc(Cl)cc3)c3c(sc(C)c3C)-n3c(C)nnc32)C(C)(C)C)cc1 (mixture of isomers) [AB3067 (27)]
CLASSIFICATION: label 1

COMPOUND: Cc1ncsc1-c1ccc(CNC(=O)[C@@H]2C[C@@H](O)CN2C(=O)[C@@H](NC(=O)COCC(C)(COCCOCCNc2cc3c(cc2F)C(=O)N(C2CCC(=O)NC2=O)C3=O)COCCOCCOCCOC(=O)C[C@@H]2N=C(c3ccc(Cl)cc3)c3c(sc(C)c3C)-n3c(C)nnc32)C(C)(C)C)cc1 (mixture of isomers) [AB3126 (29)]
CLASSIFICATION: label 1

COMPOUND: Cc1ncsc1-c1ccc(CNC(=O)[C@@H]2C[C@@H](O)CN2C(=O)[C@@H](NC(=O)COCC(C)(COCCOCCNc2cc3c(cc2F)C(=O)N(C2CCC(=O)NC2=O)C3=O)COCCOCCOC(=O)C[C@@H]2N=C(c3ccc(Cl)cc3)c3c(sc(C)c3C)-n3c(C)nnc32)C(C)(C)C)cc1 (mixture of isomers) [AB3125 (30)]
CLASSIFICATION: label 0

Task: Below 200 nM on DC50? Entry Cc1ncsc1-c1ccc([C@H](C)NC(=O)[C@@H]2C[C@@H](O)CN2C(=O)[C@@H](NC(=O)COCC(C)(COCCOCCOCCNc2cccc3c2C(=O)N(C2CCC(=O)NC2=O)C3=O)COCCOCCOCCOC(=O)C[C@@H]2N=C(c3ccc(Cl)cc3)c3c(sc(C)c3C)-n3c(C)nnc32)C(C)(C)C)cc1 (mixture of isomers) [AB3066 (24)]
Output: label 1

----------
TESTED_SYSTEM: UniProtKB Q96SW2
METHOD_SUMMARY: Western blot dose-response degradation in HEK293 cells
Assay type: cell-based
Set-up: Western blot data for BET, CRBN and VHL protein levels; endogenous in cells; host or cells: HEK293 (ATCC)
MEASUREMENT_PARAMETERS: HEK293 cells, 6 h, Western blot; mean ± S.E.M. of three experiments, values marked b mean ± S.D. of two
MEASURED_PARAMETER: DC50

Task: DC50 for Cc1ncsc1-c1ccc(CNC(=O)[C@@H]2C[C@@H](O)CN2C(=O)[C@@H](NC(=O)COCC(COCCOCCOCCNc2cc3c(cc2F)C(=O)N(C2CCC(=O)NC2=O)C3=O)(COCCOCCOCCOC(=O)C[C@@H]2N=C(c3ccc(Cl)cc3)c3c(sc(C)c3C)-n3c(C)nnc32)COCCOCCOCCOC(=O)C[C@@H]2N=C(c3ccc(Cl)cc3)c3c(sc(C)c3C)-n3c(C)nnc32)C(C)(C)C)cc1 (mixture of isomers) ?
Output: 113 nM

Task: DC50 for Cc1ncsc1-c1ccc(CNC(=O)[C@@H]2C[C@@H](O)CN2C(=O)[C@@H](NC(=O)COCC(C)(COCCOCCOCCOC(=O)C[C@@H]2N=C(c3ccc(Cl)cc3)c3c(sc(C)c3C)-n3c(C)nnc32)COCCOCCOCCN2CCN(c3cccc4c3C(=O)N(C3CCC(=O)NC3=O)C4=O)CC2)C(C)(C)C)cc1 (mixture of isomers) ?
Output: 580 nM

Task: DC50 for Cc1ncsc1-c1ccc(CNC(=O)[C@@H]2C[C@@H](O)CN2C(=O)[C@@H](NC(=O)COCC(C)(COCCOCCOCCNc2cccc3c2C(=O)N(C2CCC(=O)NC2=O)C3=O)COCCOCCOCCOC(=O)C[C@@H]2N=C(c3ccc(Cl)cc3)c3c(sc(C)c3C)-n3c(C)nnc32)C(C)(C)C)cc1 (mixture of isomers) ?
Output: 200 nM

Reference source for all entries: paper PMC11638965
